target: UniProt:Q8TD43; assay: Dose-dependence of TRPM4 currents evoked by intracellular [Ca2+]i; settings: data re-calculated by WebmaxC
Sequence (Q8TD43 whole entry): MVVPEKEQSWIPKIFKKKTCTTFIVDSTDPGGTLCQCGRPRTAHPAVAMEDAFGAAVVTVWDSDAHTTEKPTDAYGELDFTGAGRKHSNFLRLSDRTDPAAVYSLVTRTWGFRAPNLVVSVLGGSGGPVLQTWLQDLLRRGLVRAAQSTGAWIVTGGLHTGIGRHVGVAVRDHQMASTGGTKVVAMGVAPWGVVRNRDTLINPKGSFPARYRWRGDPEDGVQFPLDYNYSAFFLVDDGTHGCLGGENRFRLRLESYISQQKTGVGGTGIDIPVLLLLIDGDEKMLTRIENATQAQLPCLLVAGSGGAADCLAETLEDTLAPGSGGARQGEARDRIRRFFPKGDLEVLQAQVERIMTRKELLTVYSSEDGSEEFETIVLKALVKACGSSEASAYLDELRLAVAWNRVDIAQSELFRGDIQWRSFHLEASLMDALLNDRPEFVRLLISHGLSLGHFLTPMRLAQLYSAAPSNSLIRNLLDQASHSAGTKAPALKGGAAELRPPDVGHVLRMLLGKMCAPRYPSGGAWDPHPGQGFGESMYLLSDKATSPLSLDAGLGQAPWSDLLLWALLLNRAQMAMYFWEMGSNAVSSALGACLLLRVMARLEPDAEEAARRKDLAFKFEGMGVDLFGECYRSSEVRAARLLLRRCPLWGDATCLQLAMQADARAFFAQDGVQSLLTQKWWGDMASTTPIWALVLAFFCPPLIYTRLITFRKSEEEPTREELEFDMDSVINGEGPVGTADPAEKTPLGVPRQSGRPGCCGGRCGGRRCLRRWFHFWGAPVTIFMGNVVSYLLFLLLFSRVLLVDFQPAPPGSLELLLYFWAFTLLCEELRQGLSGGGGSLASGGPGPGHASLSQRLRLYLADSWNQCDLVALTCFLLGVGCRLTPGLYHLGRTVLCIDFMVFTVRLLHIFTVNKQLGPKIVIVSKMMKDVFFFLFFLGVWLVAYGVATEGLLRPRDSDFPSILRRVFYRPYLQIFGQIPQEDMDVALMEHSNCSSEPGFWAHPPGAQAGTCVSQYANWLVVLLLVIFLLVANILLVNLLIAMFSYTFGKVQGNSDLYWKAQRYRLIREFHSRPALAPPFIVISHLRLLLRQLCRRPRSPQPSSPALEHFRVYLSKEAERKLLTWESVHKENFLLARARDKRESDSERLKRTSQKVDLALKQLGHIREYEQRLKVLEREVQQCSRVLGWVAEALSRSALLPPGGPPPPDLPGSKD

compound: [Ca+2] [[Ca^2+]i]
units label: µM
EC50: 0.885

----------
molecular target: TRPM5 (Homo sapiens, UniProt Q9NZQ8); construct: Human TRPM5 cDNA containing the complete ORF of the long splice version; experiment: Whole-cell patch-clamp of TRPM5 currents in HEK-293 cells stably expressing TRPM5, [Ca2+]i buffered in pipette; conditions: whole-cell, HEK-293 expressing TRPM5, n=5-20; read-out: EC50 for activation of TRPM5 currents (rising phase)
Sequence (Q9NZQ8 whole entry, canonical isoform): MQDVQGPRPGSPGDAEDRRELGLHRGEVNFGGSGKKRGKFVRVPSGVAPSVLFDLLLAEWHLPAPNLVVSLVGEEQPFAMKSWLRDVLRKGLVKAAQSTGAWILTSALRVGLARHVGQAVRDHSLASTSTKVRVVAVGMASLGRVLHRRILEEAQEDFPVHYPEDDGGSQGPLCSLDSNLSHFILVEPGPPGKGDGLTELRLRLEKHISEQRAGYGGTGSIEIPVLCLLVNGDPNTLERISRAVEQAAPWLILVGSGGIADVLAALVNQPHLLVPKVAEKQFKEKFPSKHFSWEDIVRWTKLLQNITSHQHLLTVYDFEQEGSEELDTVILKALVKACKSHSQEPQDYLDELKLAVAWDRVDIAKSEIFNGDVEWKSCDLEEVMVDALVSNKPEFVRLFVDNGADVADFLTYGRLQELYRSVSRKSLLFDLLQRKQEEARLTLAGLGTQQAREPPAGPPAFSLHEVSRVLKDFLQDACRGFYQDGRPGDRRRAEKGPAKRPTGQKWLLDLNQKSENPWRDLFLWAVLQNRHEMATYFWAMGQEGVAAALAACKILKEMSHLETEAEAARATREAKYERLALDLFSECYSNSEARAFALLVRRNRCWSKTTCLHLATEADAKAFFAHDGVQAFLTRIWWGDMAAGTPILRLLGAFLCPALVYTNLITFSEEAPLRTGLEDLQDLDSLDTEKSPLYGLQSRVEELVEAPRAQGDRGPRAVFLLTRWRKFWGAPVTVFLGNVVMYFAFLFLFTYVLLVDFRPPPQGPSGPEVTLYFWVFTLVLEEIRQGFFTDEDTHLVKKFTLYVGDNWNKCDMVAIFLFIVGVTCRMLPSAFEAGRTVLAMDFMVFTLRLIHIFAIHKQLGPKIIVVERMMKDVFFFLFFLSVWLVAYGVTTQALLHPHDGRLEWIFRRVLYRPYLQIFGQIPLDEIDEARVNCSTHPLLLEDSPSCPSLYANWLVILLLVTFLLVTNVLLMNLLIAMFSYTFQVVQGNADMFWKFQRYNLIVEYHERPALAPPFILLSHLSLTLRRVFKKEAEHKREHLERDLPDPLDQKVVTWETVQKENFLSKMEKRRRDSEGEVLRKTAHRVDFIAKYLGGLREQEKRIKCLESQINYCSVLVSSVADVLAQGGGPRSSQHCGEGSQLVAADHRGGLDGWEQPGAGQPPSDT
readout name: EC50 (nM)

molecule: [Ca+2] [[Ca^2+]i]
value observed: 850
